- target under test: Vasopressin V2 receptor (Rattus norvegicus) (UniProt Q00788)
- Sequence (Q00788 whole entry): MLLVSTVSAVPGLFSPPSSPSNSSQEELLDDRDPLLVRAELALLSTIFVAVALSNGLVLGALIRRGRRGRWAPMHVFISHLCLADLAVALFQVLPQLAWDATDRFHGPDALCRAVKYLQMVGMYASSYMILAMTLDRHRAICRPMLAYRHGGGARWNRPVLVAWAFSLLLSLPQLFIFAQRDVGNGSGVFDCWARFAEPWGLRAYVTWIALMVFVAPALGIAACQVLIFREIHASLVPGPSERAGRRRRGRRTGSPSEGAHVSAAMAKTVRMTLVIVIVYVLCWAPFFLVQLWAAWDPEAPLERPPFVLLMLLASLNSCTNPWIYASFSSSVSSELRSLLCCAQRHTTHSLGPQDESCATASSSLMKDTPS
- test description: Displacement of [3H]arginine vasopressin from rat kidney medullary (AVP-V2 site) at 10 uM
- Format: tissue-based
*1 amine or outer side, *2 acyl side, *3 side chain or, on linkers, in order; H or OH if unused. Where a SMILES comes first, the peptide text is derived from it. [ ]: non-standard residue; d: D form. X1 = C=CCN([C@H](Cc1ccccc1)C(=O)[*:2])[*:1]; dNMeF = CN[C@H](Cc1ccccc1)C(=O)O; Pip = O=C(O)[C@@H]1CCCCN1; dPip = O=C(O)[C@H]1CCCCN1
measured quantity: inhibition (%)

I: C=CCN1C(=O)[C@@H]2CCCCN2C(=O)[C@H]2CCCCN2C(=O)[C@H]([C@@H](C)CC)NC(=O)[C@@H](Cc2ccccc2)NC(=O)[C@@H]2CCCN2C(=O)[C@H]1Cc1ccccc1 (cyclo(I[dPip][Pip][X1]P[dF]))
II: CC[C@H](C)[C@@H]1NC(=O)[C@@H](Cc2ccccc2)NC(=O)[C@@H]2CCCN2C(=O)[C@@H](Cc2ccccc2)N(C)C(=O)[C@H](CC(=O)O)NC(=O)[C@H]2CCCCN2C1=O (cyclo(D[dNMeF]P[dF]I[dPip]))
III: CC[C@H](C)[C@@H]1NC(=O)[C@@H](Cc2ccccc2)NC(=O)[C@@H]2CCCCN2C(=O)[C@@H](Cc2ccccc2)N(C)C(=O)[C@@H]2CCCCN2C(=O)[C@H]2CCCCN2C1=O
Order field: inhibition | Direction: descending (largest first) Answer by writing out the labels in the requested order. I, III, II
(I: 77%, III: 48%, II: 12%)

From: ChEMBL document CHEMBL1125324
